Reported IC50 Chemotaxis values follow for various binders
# studyTarget: human monocyte chemo-attractant protein-1 (MCP-1) (human, UniProt P13500 24-99)
# Sequence (P13500 24-99): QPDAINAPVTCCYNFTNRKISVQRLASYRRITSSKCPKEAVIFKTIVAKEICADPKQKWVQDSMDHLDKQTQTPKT
# assayInfo: cell-based or functional assay

As a guide, the following entries are already answered.
binder	valueMeasured
anti-MCP-1 mAb 5.3.1 (antibody, V domains shown) VH: QVQLVQSGAEVKKPGASVKVSCKVSGYTLSELSMHWVRQAPGKGLEWMGGFDPEDGETIYAQKFQGRVTMTEDTSTDTAYMELSSLRSEDTAVFYCATKREYSGYFDYWGQGTLVTVSS VL: DIVMTQSPDSLAVSLGERATINCKSSQSVLYSSNSKNYLAWFQQKPGQPPKLLIYWASTRESGVPDRFSGSGSGTDFTLTISRLQAEDVAVYSCQQYFITPWTFGQGTKVELKR	2.6 mg/L
anti-MCP-1 mAb 2.4.1 (antibody, V domains shown) VH: QVQLVQSGAEVKKPGASVKVSCKASGYTFTGYYLHWVRQAPGQGLEWMGWINPYNDGTNYAQKFQGRVTMTRDTSISTAYMELSRLRSDDTAVYYCARDIAAAGAVYFDYWGQGTLVTVSS VL: DIQMTQSPSSLSASVGDRVTITCQASQDITTYLNWYQQKPGKAPKLLIYDASNLETGVPSRFSGSGSGTDFTFTISSLQPEDIATYYCQQYDNLPITFGQGTRLEIKR	> 5 mg/L

Inquiry: Return IC50 Chemotaxis (reported value) for this binder: anti-MCP-1 mAb 3.10.1 (antibody, V domains shown) VH: QVQLVQSGAEVKKPGASVKVSCKVSGYTLTELSMHWVRQAPGKGLEWMGGFDPEDGETIYAQKFQGRVMMTEDTSTDTAFMDLSSLRSEDTAVYYCATDDMLTPHYLYFGMDVWGQGTTVTVSS VL: DIQMTQSPSSLSASVGDRVTITCRASQGIRNDLGWYQQKPGKAPKRLIYATSSLQSGVPSRFSGSGSGTEFTLTISSLQPEDFATYYCLQHNTYPFTFGPGTKVDIKR
Reply text: 0.25 mg/L
